Where these numbers come from: patent US6992105B2

Reported melting point values follow for various compounds

# Compound, melting point
data = [
    ("CC(C)[C@H](S)C(=O)NC(C)(C)C(=O)N[C@@H](CCOc1cccc(F)c1)C(=O)O [Example 6(h)]", "50 to 56 °C"),
    ("CC(C)(NC(=O)[C@@H](S)C(C)(C)C)C(=O)N[C@@H](COCc1ccccc1)C(=O)O [Example 6(e)]", "128 to 130 °C"),
    ("CC(C)[C@H](S)C(=O)NC(C)(C)C(=O)N[C@@H](CSCc1ccccc1)C(=O)O [Example 6(c)]", "81 to 87 °C"),
    ("CC(C)[C@H](S)C(=O)NC1(C(=O)N[C@@H](COCc2ccccc2)C(=O)O)CCCC1 [Example 6(b)]", "132 to 136 °C"),
]

The reported melting point of the compound CC(C)(NC(=O)[C@@H](S)C1CCOCC1)C(=O)N[C@@H](COCc1ccccc1)C(=O)O [Example 6(j)] was 184 to 189 °C

melting point recorded for this compound, CC(C)[C@H](S)C(=O)NC(C)(C)C(=O)N[C@@H](COCc1ccc(F)cc1)C(=O)O [Example 6(f)] , is 50 to 54 °C

Form field melting point, entry CCOC(=O)[C@H](COCc1ccccc1)NC(=O)C(C)(C)NC(=O)[C@@H](SC(=O)CN1CCN(C)CC1)C(C)C [Example 1(q)] : 95 to 96 °C

---

Property: melting point

Lab book: melting point of CCOC(=O)[C@@H](NC(=O)C(C)(C)NC(=O)[C@@H](SC(C)=O)C(C)C)[C@@H](C)OCc1ccccc1 noted as 121 to 122 °C

// CC(C)[C@H](S)C(=O)NC(C)(C)C(=O)N[C@H](C(=O)O)[C@@H](C)OCc1ccccc1 : melting point value = 61 to 64 °C

The reported value for CC(C)[C@H](S)C(=O)NC(C)(C)C(=O)N[C@@H](CCOc1ccc(F)cc1)C(=O)O in terms of melting point is 127 to 128 °C

melting point in this record for CCOC(=O)[C@H](COCc1ccccc1)NC(=O)C(C)(C)NC(=O)[C@@H](SC(=O)Cn1cncn1)C(C)C : 106 to 107 °C
